Data provenance is patent US12269805B2.

Experiment: Pharmacokinetic study: compound concentration in mouse blood plasma after PO and IV administration
Format: in vivo, mice
Settings: mouse, plasma, iv, 30 mg/kg, IV 30 mg/kg, 7 h, read-out: Concentration in Plasma, Mouse 1
Protocol: The blood plasma concentration of compound A3 in mice was determined following per os, oral compound administration (“PO”) and intravenous (“IV”) administration Calibration curve. The concentration range was evaluated from 1-5000 ng/ml for compound A3. The curve was built with linear regression with weighing (1/X2). The linear regression analysis was performed by plotting the peak area ratio (y) against the concentration (x) in ng/mL. Instrument Conditions. […]
ASSAY_ENDPOINT: concentration at 7 h

Requested field: concentration at 7 h. Item: CC(C)N(CCCCSc1n[nH]c(=O)[nH]1)c1cnc(-c2ccccc2)c(-c2ccccc2)n1 [Compound A3]
123 ng/mL

====

assay: Pharmacokinetic study: compound concentration in mouse blood plasma after PO and IV administration; assay type: in vivo, mice; settings: mouse, plasma, iv, 30 mg/kg, IV 30 mg/kg, 4 h, read-out: Concentration in Plasma, Mouse 1
ASSAY_ENDPOINT: concentration at 4 h (ng/mL)
One number for each entry, in ng/mL.

Requested field: concentration at 4 h. Item: CC(C)N(CCCCSc1n[nH]c(=O)[nH]1)c1cnc(-c2ccccc2)c(-c2ccccc2)n1 [Compound A3]
135

====

test: Pharmacokinetic study: compound concentration in mouse blood plasma after PO and IV administration; format: in vivo, mice; conditions: mouse, plasma, po, 30 mg/kg, PO 30 mg/kg, 7 h, read-out: Concentration in Plasma, Mouse 2
ASSAY_ENDPOINT: concentration at 7 h (ng/mL)
Answers are plain numbers, in ng/mL.

Requested field: concentration at 7 h. Item: `CC(C)N(CCCCSc1n[nH]c(=O)[nH]1)c1cnc(-c2ccccc2)c(-c2ccccc2)n1`
19.1

====

assay: Pharmacokinetic study: compound concentration in mouse blood plasma after PO and IV administration; format: in vivo, mice; details: mouse, plasma, po, 30 mg/kg, PO 30 mg/kg, 4 h, read-out: Concentration in Plasma, Mouse 1
ASSAY_ENDPOINT: concentration at 4 h (ng/mL)
Numbers only, in ng/mL.

Requested field: concentration at 4 h. Item: CC(C)N(CCCCSc1n[nH]c(=O)[nH]1)c1cnc(-c2ccccc2)c(-c2ccccc2)n1 [Compound A3]
46.5

====

Assay: Pharmacokinetic study: compound concentration in mouse blood plasma after PO and IV administration
Type: in vivo, mice
Settings: mouse, plasma, po, 30 mg/kg, PO 30 mg/kg, 2 h, read-out: Concentration in Plasma, Mouse 3
Method: The blood plasma concentration of compound A3 in mice was determined following per os, oral compound administration (“PO”) and intravenous (“IV”) administration Calibration curve. The concentration range was evaluated from 1-5000 ng/ml for compound A3. The curve was built with linear regression with weighing (1/X2). The linear regression analysis was performed by plotting the peak area ratio (y) against the concentration (x) in ng/mL. Instrument Conditions. […]
ASSAY_ENDPOINT: concentration at 2 h (ng/mL)
Answers are plain numbers, in ng/mL.

Requested field: concentration at 2 h. Item: `CC(C)N(CCCCSc1n[nH]c(=O)[nH]1)c1cnc(-c2ccccc2)c(-c2ccccc2)n1`
52.5

====

Assay: Pharmacokinetic study: compound concentration in mouse blood plasma after PO and IV administration
Assay type: in vivo, mice
Conditions: mouse, plasma, iv, 30 mg/kg, IV 30 mg/kg, 2 h, read-out: Concentration in Plasma, Mouse 2
Description: The blood plasma concentration of compound A3 in mice was determined following per os, oral compound administration (“PO”) and intravenous (“IV”) administration Calibration curve. The concentration range was evaluated from 1-5000 ng/ml for compound A3. The curve was built with linear regression with weighing (1/X2). The linear regression analysis was performed by plotting the peak area ratio (y) against the concentration (x) in ng/mL. Instrument Conditions. […]
ASSAY_ENDPOINT: concentration at 2 h

Requested field: concentration at 2 h. Item: `CC(C)N(CCCCSc1n[nH]c(=O)[nH]1)c1cnc(-c2ccccc2)c(-c2ccccc2)n1`
158 ng/mL
